Cited source for all entries: patent US8710098B2

Biological target: hA3G degradation mediated by HIV-1 Vif (UniProt P69723+Q9HC16)
Construct: expressed in transfected cells
Sequence (P69723 whole entry): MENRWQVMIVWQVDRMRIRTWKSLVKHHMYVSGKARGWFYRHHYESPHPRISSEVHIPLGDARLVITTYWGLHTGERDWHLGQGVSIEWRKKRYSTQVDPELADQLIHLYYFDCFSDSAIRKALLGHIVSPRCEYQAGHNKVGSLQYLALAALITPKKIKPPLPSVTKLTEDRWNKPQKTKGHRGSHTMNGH
Sequence (Q9HC16 whole entry): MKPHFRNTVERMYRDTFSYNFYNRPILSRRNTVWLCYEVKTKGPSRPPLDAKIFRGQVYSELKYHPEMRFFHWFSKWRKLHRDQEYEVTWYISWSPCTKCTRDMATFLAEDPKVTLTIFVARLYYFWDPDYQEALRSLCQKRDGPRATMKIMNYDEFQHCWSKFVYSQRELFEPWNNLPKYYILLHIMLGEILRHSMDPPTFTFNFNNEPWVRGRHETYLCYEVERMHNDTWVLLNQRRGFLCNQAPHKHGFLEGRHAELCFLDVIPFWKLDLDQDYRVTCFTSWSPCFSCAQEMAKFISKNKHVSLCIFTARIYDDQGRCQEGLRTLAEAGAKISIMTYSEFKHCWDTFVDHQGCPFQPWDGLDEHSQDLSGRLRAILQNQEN
Experiment: Screening experiment for up-regulation activity to hA3G (YFP-fused hA3G co-expressed with HIV-1 Vif, fluorescence)
Type: cell-based, human
Conditions: YFP fluorescence of cells co-expressing Vif and hA3G-YFP; excitation 485 nm, detection 520 nm; averages of duplicates
This listing pairs compounds with measured hA3G up-regulation activity (%).
outcome measure: hA3G up-regulation activity (%)

compound	target system	endpoint value
CCC(=O)Nc1cc(S(=O)(=O)Nc2cc(OC)c(OC)c(OC)c2)ccc1OC	hA3G degradation mediated by HIV-1 Vif (UniProt P69723+Q9HC16)	31.0
COc1ccc(C(=O)Oc2cc(OC)c(OC)c(OC)c2)cc1NC(=O)CF	hA3G degradation mediated by HIV-1 Vif (UniProt P69723+Q9HC16)	34.5
CCC(=O)Nc1cc(C(=O)Cc2cc(OC)c(OC)c(OC)c2)ccc1OC	hA3G degradation mediated by HIV-1 Vif (UniProt P69723+Q9HC16)	28.9
CCC(=O)Nc1cc(OC(=O)c2cc(OC)c(OC)c(OC)c2)ccc1OC	hA3G degradation mediated by HIV-1 Vif (UniProt P69723+Q9HC16)	40.1
CCNc1cc(C(=O)Nc2ccc(OC)cc2)ccc1OC [Compound 42]	hA3G degradation mediated by HIV-1 Vif (UniProt P69723+Q9HC16)	34.3
COc1ccc(C(=O)Nc2cc(OC)c(OC)c(OC)c2)cc1NC(=O)C(C)Br (stereo not drawn)	hA3G degradation mediated by HIV-1 Vif (UniProt P69723+Q9HC16)	42.7
CCC(=O)Nc1cc(C(=O)Nc2cccc(O)c2)ccc1OC	hA3G degradation mediated by HIV-1 Vif (UniProt P69723+Q9HC16)	−3.1
CCC(=O)Nc1cc(C(=O)Nc2ccc(Cl)cc2)ccc1OC	hA3G degradation mediated by HIV-1 Vif (UniProt P69723+Q9HC16)	27.8
CCC(=O)Nc1cc(S(=O)(=O)Nc2ccc(OC)c(OC)c2)cc(F)c1OC	hA3G degradation mediated by HIV-1 Vif (UniProt P69723+Q9HC16)	8.7

* * *

Target: hA3G degradation mediated by HIV-1 Vif (UniProt P69723+Q9HC16)
Construct: expressed in transfected cells
Experiment: Screening experiment for up-regulation activity to hA3G (YFP-fused hA3G co-expressed with HIV-1 Vif, fluorescence)
Type: cell-based, human
Conditions: YFP fluorescence of cells co-expressing Vif and hA3G-YFP; excitation 485 nm, detection 520 nm; averages of duplicates
Kindly apply the following: T if hA3G up-regulation activity (%) is less than 10%, F in every other case.

molecule	target system	classification
CCC(=O)Oc1cc(C(=O)Nc2cc(OC)c(OC)c(OC)c2)ccc1OC [Compound 86]	hA3G degradation mediated by HIV-1 Vif (UniProt P69723+Q9HC16)	F
COc1ccc(C(=O)Nc2cc(OC)c(OC)c(OC)c2)cc1NC(=O)C(C)Cl (stereo not drawn) [Compound 14]	hA3G degradation mediated by HIV-1 Vif (UniProt P69723+Q9HC16)	F
COc1ccc(C(=O)Cc2cc(OC)c(OC)c(OC)c2)cc1NC(=O)C(C)Cl (stereo not drawn) [Compound 16]	hA3G degradation mediated by HIV-1 Vif (UniProt P69723+Q9HC16)	F
CCC(Br)C(=O)Nc1cc(C(=O)Nc2cc(OC)c(OC)c(OC)c2)ccc1OC (stereo not drawn) [Compound 31]	hA3G degradation mediated by HIV-1 Vif (UniProt P69723+Q9HC16)	F
CCC(=O)Nc1cc(C(=O)Nc2ccc([N+](=O)[O-])cc2)ccc1OC [Compound 2612]	hA3G degradation mediated by HIV-1 Vif (UniProt P69723+Q9HC16)	F
COc1ccc(C(=O)Sc2cc(OC)c(OC)c(OC)c2)cc1NC(=O)CF [Compound 19]	hA3G degradation mediated by HIV-1 Vif (UniProt P69723+Q9HC16)	F
COc1ccc(S(=O)(=O)Nc2cc(OC)c(OC)c(OC)c2)cc1N [Compound 85]	hA3G degradation mediated by HIV-1 Vif (UniProt P69723+Q9HC16)	T
CCC(=O)Nc1cc(C(=O)Nc2cc(OC)nc(OC)n2)ccc1OC [Compound 33]	hA3G degradation mediated by HIV-1 Vif (UniProt P69723+Q9HC16)	F
CCC(=O)Nc1cc(S(=O)(=O)Nc2ccc(NC)c(OC)c2)ccc1OC [Compound 96]	hA3G degradation mediated by HIV-1 Vif (UniProt P69723+Q9HC16)	T

* * *

Target: hA3G degradation mediated by HIV-1 Vif (UniProt P69723+Q9HC16)
Construct: expressed in transfected cells
Test: Screening experiment for up-regulation activity to hA3G (YFP-fused hA3G co-expressed with HIV-1 Vif, fluorescence)
Type: cell-based, human
Conditions: YFP fluorescence of cells co-expressing Vif and hA3G-YFP; excitation 485 nm, detection 520 nm; averages of duplicates
Binning of hA3G up-regulation activity (%) into classes: low bin = under 20%, mid bin = from 20% up to 30%, high bin = 30% and over

compound	classification
COc1ccc(C(=O)Oc2cc(OC)c(OC)c(OC)c2)cc1NC(=O)CCl [Compound 27]	high bin
CNc1cc(C(=O)Nc2cc(OC)c(OC)c(OC)c2)ccc1O [Compound 34]	high bin
COc1cc(NC(=O)c2cc(NC(C)=O)cc(C(F)(F)F)c2)cc(OC)c1OC [Compound 74]	low bin
COc1ccc(C(=O)Oc2cc(OC)c(OC)c(OC)c2)cc1NC(=O)C(F)(F)F [Compound 353]	high bin
COc1ccc(C(=O)Nc2cc(OC)c(OC)c(OC)c2)cc1NC(=O)CCl [Compound 1]	high bin
CCC(=O)Nc1cc(C(=O)Nc2cc(OC)c[nH]2)ccc1OC [Compound 49]	low bin
CCC(=O)Nc1cc([S+]([O-])Nc2cc(OC)c(OC)c(OC)c2)ccc1OC (centres unmarked) [Compound 82]	mid bin
CCC(=O)Nc1cc(C(=O)Nc2ccc(OC(F)(F)F)cc2)ccc1OC [Compound 67]	low bin
CCC(=O)Nc1cc(NNc2cc(OC)c(OC)c(OC)c2)ccc1OC [Compound 89]	high bin
CCC(=O)Nc1cc(C(O)Cc2cc(OC)c(OC)c(OC)c2)ccc1OC (centres unmarked) [Compound 32]	low bin
CCC(=O)Nc1cc(C(=O)Nc2cc(OC)c(OC)c(OC)c2)c(F)cc1OC [Compound 79]	mid bin
COc1ccc(C(=O)Cc2cc(OC)c(OC)c(OC)c2)cc1NC(C)=O [Compound 13]	high bin
CCC(=O)Nc1cc(S(=O)(=O)Nc2cc(OC)nc(OC)n2)ccc1OC [Compound 93]	high bin
COc1ccc(C(=O)Oc2cc(OC)c(OC)c(OC)c2)cc1NC(C)=O [Compound 12]	high bin
CCC(=O)Nc1cc(C(=O)Nc2ccccc2)ccc1OC [Compound 60]	low bin
CNc1cc(CNc2cc(OC)c(OC)c(OC)c2)ccc1OC [Compound 45]	mid bin

* * *

Biological target: hA3G degradation mediated by HIV-1 Vif (UniProt P69723+Q9HC16)
Construct: expressed in transfected cells
Test: Screening experiment for up-regulation activity to hA3G (YFP-fused hA3G co-expressed with HIV-1 Vif, fluorescence)
Format: cell-based, human
Conditions: YFP fluorescence of cells co-expressing Vif and hA3G-YFP; excitation 485 nm, detection 520 nm; averages of duplicates
Each entry falls in a class defined on hA3G up-regulation activity (%); the bands are A (below 20%), B (20% to below 30%), C (30% or more)

smiles structure	classification
CCC(=O)Nc1cc(C(=O)Nc2ccc(OC(F)(F)F)cc2)ccc1F	B
COc1cc(OC(=O)c2cc(Cl)cc(NC(C)=O)c2)cc(OC)c1OC	B
COc1ccc(C(=O)Nc2cc(OC)c(OC)c(OC)c2)cc1NC(C)=O	B
COc1ccc(C(=O)Oc2cc(OC)c(OC)c(OC)c2)cc1NC(=O)CBr	A
COc1ccc(NC(=O)c2ccc(OC)c(NC(C)C)c2)cc1	B
CCC(=O)Nc1ccc(C(=O)Nc2cc(OC)c(OC)c(OC)c2)cc1OC	A
CCC(=O)Nc1cc(C(=O)Nc2ccc(N)c(F)c2)ccc1OC	C
COc1ccc(C(=O)Nc2cc(OC)c(OC)c(OC)c2)cc1NC(=O)CF	C

* * *

Target: hA3G degradation mediated by HIV-1 Vif (UniProt P69723+Q9HC16)
Construct: expressed in transfected cells
Test: Screening experiment for up-regulation activity to hA3G (YFP-fused hA3G co-expressed with HIV-1 Vif, fluorescence)
Type: cell-based, human
Conditions: YFP fluorescence of cells co-expressing Vif and hA3G-YFP; excitation 485 nm, detection 520 nm; averages of duplicates
Assign true to entries whose hA3G up-regulation activity (%) meets or exceeds 20%; assign false to the rest.

CCC(=O)Nc1cc(NS(=O)(=O)c2cc(OC)nc(OC)n2)ccc1OC true
COc1ccc(C(=O)Cc2cc(OC)c(OC)c(OC)c2)cc1NC(=O)CF true
CCC(=O)Nc1cc(S(=O)(=O)Nc2ccc(OC)c(OC)c2)ccc1OC false
CCC(=O)Nc1cc(C(=O)Sc2cc(OC)c(OC)c(OC)c2)ccc1OC true
CCC(=O)Nc1cc(C(=O)Oc2cc(OC)c(OC)c(OC)c2)ccc1OC true
CCC(=O)Nc1cc(C(=O)Nc2ccnc(O)c2)ccc1OC false
COc1ccc(C(=O)Nc2cc(OC)c(OC)c(OC)c2)cc1NC(=O)CBr true
COc1ccc(C(=O)Cc2cc(OC)c(OC)c(OC)c2)cc1NC(=O)CCl true
